- test_name: Autosampler stability of ready for injection samples
- Format: physicochemical, human
- study_conditions: validation standard ULOV
As shown below, each of these molecules has a reported Autosampler (24h, 4°C) Accuracy [%] value.
// units = %; emit number, no label

Consider the following illustrative entries.
INSERT INTO measurements (molecule, reported_endpoint, quantity_unit, recorded_measurement) VALUES
  ('CN(C)C/C=C/C(=O)Nc1cc2c(Nc3ccc(F)c(Cl)c3)ncnc2cc1O[C@H]1CCOC1', 'Autosampler (24h, 4°C) Accuracy [%]', '%', 98.7),
  ('Nc1cccc2c1CN(C1CCC(=O)NC1=O)C2=O (centres unmarked) [Lenalidomide]', 'Autosampler (24h, 4°C) Accuracy [%]', '%', 100.8);

Given the molecule Cc1ccc(NC(=O)c2ccc(CN3CCN(C)CC3)cc2)cc1Nc1nccc(-c2cccnc2)n1 , write its reported Autosampler (24h, 4°C) Accuracy [%].
95.3

Respond only with Autosampler (24h, 4°C) Accuracy [%] recorded for NC(=O)c1cccc2cn(-c3ccc([C@@H]4CCCNC4)cc3)nc12
100.8

Please report Autosampler (24h, 4°C) Accuracy [%] for the following molecule: O=C(Nc1cnn2ccc(N3CCC[C@@H]3c3cc(F)ccc3F)nc12)N1CC[C@H](O)C1
102.3

For the molecule O=C1CCC(N2C(=O)c3ccccc3C2=O)C(=O)N1 (centres unmarked) [Thalidomide] , give its measured Autosampler (24h, 4°C) Accuracy [%] value.
96.9

Give Autosampler (24h, 4°C) Accuracy [%] for O=c1[nH]c(=O)n([C@H]2C[C@H](O)[C@@H](CO)O2)cc1C(F)(F)F
104.4

Retrieve Autosampler (24h, 4°C) Accuracy [%] measured for C=CC(=O)N1CCC[C@@H](n2nc(-c3ccc(Oc4ccccc4)cc3)c3c(N)ncnc32)C1 and print it.
100.0

Quickly give me recorded Autosampler (24h, 4°C) Accuracy [%] for O=C1CN2Cc3c(ccc(Cl)c3Cl)N=C2N1 [Anagrelide]
101.8

Give the measured Autosampler (24h, 4°C) Accuracy [%] for O=C(c1ccc(F)c(F)c1Nc1ccc(I)cc1F)N1CC(O)([C@@H]2CCCCN2)C1
102.5
